molecular target: Chromo domain-containing protein 1 (Saccharomyces cerevisiae (strain ATCC 204508 / S288c) (Baker's yeast)) (UniProt P32657); test: ScCHD-1 Enzyme Inhibition Assay; assay type: functional; design: scale not given: in the data most compounds retested in dose-response had high values; details: 30 µM
Sequence (P32657 whole entry, the tested form may be a part): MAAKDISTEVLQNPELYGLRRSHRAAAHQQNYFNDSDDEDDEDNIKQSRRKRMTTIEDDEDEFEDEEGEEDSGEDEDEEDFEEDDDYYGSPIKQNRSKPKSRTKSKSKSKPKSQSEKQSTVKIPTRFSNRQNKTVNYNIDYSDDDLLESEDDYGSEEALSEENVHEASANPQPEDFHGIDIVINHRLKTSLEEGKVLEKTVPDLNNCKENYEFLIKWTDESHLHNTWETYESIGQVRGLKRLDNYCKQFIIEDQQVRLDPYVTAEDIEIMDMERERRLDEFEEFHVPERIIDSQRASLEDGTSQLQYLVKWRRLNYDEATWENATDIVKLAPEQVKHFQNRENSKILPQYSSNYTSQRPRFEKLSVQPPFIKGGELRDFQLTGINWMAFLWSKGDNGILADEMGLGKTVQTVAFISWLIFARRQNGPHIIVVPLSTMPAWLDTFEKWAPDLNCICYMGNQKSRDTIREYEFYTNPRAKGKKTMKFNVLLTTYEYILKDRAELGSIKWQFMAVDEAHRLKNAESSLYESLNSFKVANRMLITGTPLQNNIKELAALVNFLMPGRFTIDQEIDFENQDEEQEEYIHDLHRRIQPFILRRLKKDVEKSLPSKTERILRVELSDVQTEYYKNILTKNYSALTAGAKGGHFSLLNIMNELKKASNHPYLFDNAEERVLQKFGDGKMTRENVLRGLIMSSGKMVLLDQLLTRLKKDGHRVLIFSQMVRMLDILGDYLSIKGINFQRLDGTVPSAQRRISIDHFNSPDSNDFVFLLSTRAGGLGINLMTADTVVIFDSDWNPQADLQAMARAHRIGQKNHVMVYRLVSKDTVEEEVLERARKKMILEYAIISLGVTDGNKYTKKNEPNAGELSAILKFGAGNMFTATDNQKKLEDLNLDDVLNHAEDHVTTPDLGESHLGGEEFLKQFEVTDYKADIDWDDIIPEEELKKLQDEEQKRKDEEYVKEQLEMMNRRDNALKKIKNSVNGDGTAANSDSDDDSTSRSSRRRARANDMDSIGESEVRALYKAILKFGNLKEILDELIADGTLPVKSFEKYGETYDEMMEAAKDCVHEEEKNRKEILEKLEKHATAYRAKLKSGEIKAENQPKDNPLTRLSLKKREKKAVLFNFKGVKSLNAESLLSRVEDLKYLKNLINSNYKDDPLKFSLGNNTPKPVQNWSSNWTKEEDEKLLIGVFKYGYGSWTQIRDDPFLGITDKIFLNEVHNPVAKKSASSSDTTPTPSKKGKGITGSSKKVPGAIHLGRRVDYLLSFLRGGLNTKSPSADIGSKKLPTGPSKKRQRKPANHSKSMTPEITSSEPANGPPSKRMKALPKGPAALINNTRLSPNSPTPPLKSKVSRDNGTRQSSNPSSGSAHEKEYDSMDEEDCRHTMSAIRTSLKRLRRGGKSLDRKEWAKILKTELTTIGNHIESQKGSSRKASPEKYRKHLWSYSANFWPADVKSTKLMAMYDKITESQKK
Listed next: entries and their corresponding Percent Effect.
Hi! Could you send only the number? It should be in %, unit omitted.

Example entries and their recorded answers appear below.
input: Supply reported Percent Effect belonging to this compound: `Cc1csc(N2CCN(C(=O)Cc3ccc(C)s3)CC2)n1`
output: 1.36

input: State, in one line, measured Percent Effect of Cc1ncc(CNC(=O)CCOc2ccccc2)c(C2CCCN2C)n1 (stereo unspecified)
output: -1.9

input: Give recorded Percent Effect. `CCCC(=O)N1CCC(O)(Cn2c(CC)nc3ccccc3c2=O)CC1`
output: -6.13

input: Give me measured Percent Effect, please, for this compound: `CCN1CCN(Cc2coc(-c3cccc(F)c3)n2)CC1`
output: -12

input: Report Percent Effect for `O=C(Nc1cnn(CCN2CCOCC2)c1)c1ccccc1O`
output: -12.5

input: Supply reported Percent Effect belonging to this compound: `COCc1ccccc1CNCc1c(C)nn(C)c1N(C)C`
output: -5.6

input: // fetch Percent Effect given entry `COc1cc(CNC(=O)CNc2cc(Cl)ccc2OC)ccn1`
output: 0.373

input: Output measured Percent Effect for this item: `CCCNC(=O)C1CCN(Cc2csc(C(C)(C)C)n2)CC1`
output: -6.15

Continuing:
input: Using known records, supply Percent Effect for COCc1cnc2n1CCN(Cc1cccnc1)C2C (stereo unspecified)
output: -2.32

input: // Input: Fc1cccc(-n2ccc(CN3CCCCC3Cn3cncn3)n2)c1 (stereo unspecified) . Output its Percent Effect only.
output: 2.75

input: Provide Percent Effect value for the following compound: CCCC(C)CN1CCC(n2cc(C3CCCC3)nn2)CC1 (stereo unspecified)
output: -4.05

---

target: Tyrosyl-tRNA synthetase, putative (Trypanosoma cruzi (strain CL Brener)); assay: Trypanosoma cruzi tyrosyl tRNA synthetase (TcYRS) SOP; format: functional; set-up: scale not given: direction of the effect not stated beside the values; settings: 30 µM
Could you please mark yes for values of Percent Effect below 20% and no for values at or above it?

Would you please look over these solved cases?
input: Say whether its Percent Effect is strictly beneath 20%. Entry: Cc1nc(C)n(C2CCCN(C(=O)CCCOc3ccccc3)C2)n1 (stereo not given)
output: yes

input: Say whether its Percent Effect is strictly beneath 20%. Entry: Cc1cc(C)cc(NC(=O)CN2CCCC(n3cncn3)C2)c1 (stereo not given)
output: yes

input: Determine whether this compound shows Percent Effect lower than 20% (ties excluded): CCc1ccc(CNC(=O)NC(C)CN2CCOCC2)s1 (stereo not given)
output: yes

input: Does the reported Percent Effect of `O=C(CCc1cccs1)N1CCC(Nc2cccnn2)CC1` stay below 20%?
output: no

input: Given CN(Cc1cccc(F)c1)C(=O)CN1CCCC1CCc1ccccc1 (stereo not given) , is recorded Percent Effect strictly lower than 20%?
output: yes

Here is another compound to look at.
input: Lab note: confirm whether the reported Percent Effect for this compound is below 20%, equality not counting. compound: COc1ccc(NC(C)C(=O)N2CCN(Cc3ccccc3)CC2)cn1 (stereo not given)
output: yes

---

biological target: Chromo domain-containing protein 1 (Saccharomyces cerevisiae (strain ATCC 204508 / S288c) (Baker's yeast)); experiment: ScCHD-1 Enzyme Inhibition Assay; format: functional; parameters: scale not given: in the data most compounds retested in dose-response had high values; settings: 30 µM
A collection of compounds and their measured Percent Effect
// return numeric value only (unit: %, not printed)

input: Name the recorded Percent Effect of the compound listed here: c1ccc(Cn2cc(CNCC3CCCN3c3cccnn3)cn2)cc1 (stereo unspecified)
output: -4.79

More entries:
input: Give Percent Effect for the following compound: CC(C)c1nc(C2CCCN(C(=O)CCCn3cncn3)C2)no1 (stereo unspecified)
output: -12.8

input: Give me measured Percent Effect, please, for this compound: `CN1CCCN(C(=O)NCc2csc(Br)c2)CC1`
output: -0.533

input: Write down Percent Effect measured for item `O=C(Nc1ccccn1)N(CCO)Cc1ccsc1`
output: -3.38

input: Retrieve Percent Effect measured for `CC(=O)NCC(=O)N1CC[C@H](OCC2CC2)[C@@H]1Cc1cccnc1` and print it.
output: -0.336

input: Give me measured Percent Effect, please, for this compound: Cc1nc(C)n(CC2CCCN(CC(=O)Nc3c(C)n[nH]c3C)C2)n1 (stereo unspecified)
output: -9.15

input: Specify measured Percent Effect for `CCc1ncc2c(n1)CN(Cc1nnc(C)o1)CC2` .
output: -6.64

input: Quote Percent Effect reported for Cc1cccc(N2CCN(CCNC(=O)C(C)n3cncn3)CC2)c1 (stereo unspecified) please.
output: -10.7

input: Find the measured Percent Effect of CN(Cc1cnn(C)c1)C(=O)NC1CCS(=O)(=O)C1 (stereo unspecified) and report it.
output: -2.71

input: Look up Percent Effect of CCN1CC(C(=O)N(C)Cc2ccon2)CC1=O (stereo unspecified) and report it.
output: -3.83

input: Using the record for `Cc1ccc(CNCc2ccc(-n3nc(C)cc3C)nc2)cc1` , state its measured Percent Effect.
output: -9.49
